Target: Histone deacetylase 7 (Homo sapiens, UniProt Q8WUI4)
Sequence (Q8WUI4 whole entry): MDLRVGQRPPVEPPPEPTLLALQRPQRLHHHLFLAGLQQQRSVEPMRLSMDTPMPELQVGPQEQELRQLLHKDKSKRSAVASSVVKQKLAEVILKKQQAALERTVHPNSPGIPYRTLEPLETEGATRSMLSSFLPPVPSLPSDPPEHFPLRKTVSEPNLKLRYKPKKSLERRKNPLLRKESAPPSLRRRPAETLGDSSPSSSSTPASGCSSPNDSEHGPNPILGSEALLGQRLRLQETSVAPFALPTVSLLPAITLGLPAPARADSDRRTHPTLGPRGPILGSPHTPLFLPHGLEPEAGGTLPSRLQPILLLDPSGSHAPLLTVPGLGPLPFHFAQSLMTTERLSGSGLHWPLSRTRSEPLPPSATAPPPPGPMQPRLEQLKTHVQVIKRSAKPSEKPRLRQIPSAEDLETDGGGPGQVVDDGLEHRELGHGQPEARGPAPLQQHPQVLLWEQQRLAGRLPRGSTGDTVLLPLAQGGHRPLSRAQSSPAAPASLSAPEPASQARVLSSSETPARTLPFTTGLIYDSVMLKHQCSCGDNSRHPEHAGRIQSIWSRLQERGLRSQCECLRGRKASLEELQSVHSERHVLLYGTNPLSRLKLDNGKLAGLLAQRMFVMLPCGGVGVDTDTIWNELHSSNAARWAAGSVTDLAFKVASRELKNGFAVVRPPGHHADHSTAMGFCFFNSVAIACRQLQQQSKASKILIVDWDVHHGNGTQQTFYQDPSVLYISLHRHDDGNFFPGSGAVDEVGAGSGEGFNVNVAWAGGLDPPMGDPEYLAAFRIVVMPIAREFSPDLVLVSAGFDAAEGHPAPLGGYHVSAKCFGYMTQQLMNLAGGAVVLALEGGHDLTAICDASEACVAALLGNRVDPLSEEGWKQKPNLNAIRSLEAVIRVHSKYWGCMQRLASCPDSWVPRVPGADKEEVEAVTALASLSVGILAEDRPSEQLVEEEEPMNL
Assay: Inhibition of recombinant full length human HDAC7 expressed in SF9 baculovirus using FAM- labelled acetylated peptide as substrate measured by Electrophoretic mobility shift assay
pIC50: −log10 of the molar value.
endpointName: pIC50

The molecule `O=C(NO)c1ccc(CNC(=O)c2c(F)c(F)c(F)c(F)c2F)cc1` showed pIC50 equal to < 6.00
